Origin of values: ChEMBL document CHEMBL3045901

# Tested on: Avena fatua
# ASSAY_DETAILS: Herbicidal activity against Avena fatua assessed as weed control at 30 g/ha under greenhouse measured after 21 days by post-emergence test
# Assay type: functional
Quick reference for Activity among some molecules
Answer with a number only, understood to be in %.

The following molecules have reported results that may help.
CCc1cc(C)cc(C)c1C1C(=O)N2CCOCCN2C1=O : 80
CCc1cc(C)cc(CC)c1C1C(=O)N2CCOCCN2C1=O : 100
C#Cc1cc(C)cc(OC)c1C1C(=O)N2CCOCCN2C1=O : 0

Return reported Activity; argument: CCc1cc(C)cc(CC)c1C1C(=O)N2CCCOCN2C1=O (stereo not drawn) 40

Return reported Activity; argument: CCc1cc(-c2ccccc2)cc(CC)c1C1C(=O)N2CCOCCN2C1=O 90

Return reported Activity; argument: C#Cc1cc(C)cc(CC)c1C1C(=O)N2CCOCCN2C1=O 100

Return reported Activity; argument: CCc1cccc(CC)c1C1C(=O)N2CCOCCN2C1=O 0

Return reported Activity; argument: Cc1cc(C)c(C2C(=O)N3CCOCCN3C2=O)c(C)c1 60
